TEST_DETAILS: TLR3 IRF3 reporter activation blockers – cell-based, poly I:C stimulus, luciferase, 10K MLSCN set, primary screen (AID 602277)
CONDITION_PARAMETERS: HEK293-TLR3 RL24 IRF3 luciferase reporter, at 10 µM
Active and inactive are the calls of the source.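 How the source made its calls: active means inhibition of the reporter signal at or above 50%; inactive means inhibition below 50%.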
Outcomes: active, inactive

>>> classification("COc1ccc(-c2nnc(SCC#N)o2)cc1")
"inactive"
>>> classification("O=C(Nc1ccc2[nH]c3c(c2c1)CCCC3)c1ccco1")
"inactive"
>>> classification("COCCCNC(=O)CCCn1c(=O)c2ccccc2n(CC(=O)Nc2c(C)cccc2C)c1=O")
"inactive"
>>> classification("Cc1c(NS(=O)(=O)c2ccc3c(c2)n(C)c(=O)n3C)c(=O)n(-c2ccccc2)n1C")
"inactive"
>>> classification("CCOC(=O)c1sc(NC(=O)CSc2nnnn2-c2ccccc2)c(C(=O)OCC)c1C")
"inactive"
>>> classification("C=CCOc1ccc(CN(C)CC(=O)N(CC(C)C)c2c(N)n(CC(C)C)c(=O)[nH]c2=O)cc1")
"inactive"
>>> classification("CN(C)c1ccc(C=Nc2ccc(N(C)C)cc2)cc1")
"inactive"
>>> classification("Cn1c2c(c(=O)n(C)c1=O)CN(CCCN1CCOCC1)CN2")
"inactive"
>>> classification("Cc1cc(C)c(OCC(=O)Nc2cccc(O)c2)cc1C")
"inactive"
>>> classification("CC(C)N(O)C(=O)NC(C)(C)C")
"inactive"
>>> classification("CCn1ncc(C2=NOC(C(=O)NCc3ccccc3)C2)c1C (stereo not drawn)")
"active"
>>> classification("O=S(=O)(c1cccc(S(=O)(=O)N2CCC(N3CCCCC3)CC2)c1)N1CCOCC1")
"inactive"
>>> classification("CN/C=C1\\C(=O)C(C)(C)Oc2ccc3ccc(=O)oc3c21")
"inactive"
>>> classification("CC(C)n1nnnc1SCC(=O)Nc1ccccc1N1CCOCC1")
"inactive"
>>> classification("CC1(C)OC(=O)C(=CNc2ccccc2)C(=O)O1")
"active"
>>> classification("CC1Cc2ccccc2N1Cc1cc(=O)n2ccsc2n1 (stereo not drawn)")
"inactive"
>>> classification("Cc1c(C(=O)O)sc2ncn(C)c(=O)c12")
"inactive"
>>> classification("CCS(=O)(=O)c1nc2ccccc2n1CC(=O)N1CCCCC1")
"inactive"
>>> classification("CC(=O)NCc1cccc(CNC(C)=O)n1")
"inactive"
>>> classification("Cc1onc(-c2ccccc2)c1C(=O)N1CCCSC1=Nc1ccccc1")
"inactive"
>>> classification("CCN(CC)c1nc2cc(OC)ccc2cc1C#N")
"inactive"
>>> classification("Cc1c(NC(=O)c2cnn3c2NC(c2ccco2)CC3C(F)(F)F)c(=O)n(-c2ccccc2)n1C (stereo not drawn)")
"inactive"
>>> classification("Cc1cccc2cc(CN(Cc3nnnn3Cc3ccco3)C3CCCC3)c3nnnn3c12")
"inactive"

---

In this section we review reported NADPH fluorescence slope values for a set of molecules.
TARGET_DESC: Voltage-gated potassium channel subunit beta-2 (Rattus norvegicus) (UniProt P62483)
Sequence (P62483 whole entry, looked up): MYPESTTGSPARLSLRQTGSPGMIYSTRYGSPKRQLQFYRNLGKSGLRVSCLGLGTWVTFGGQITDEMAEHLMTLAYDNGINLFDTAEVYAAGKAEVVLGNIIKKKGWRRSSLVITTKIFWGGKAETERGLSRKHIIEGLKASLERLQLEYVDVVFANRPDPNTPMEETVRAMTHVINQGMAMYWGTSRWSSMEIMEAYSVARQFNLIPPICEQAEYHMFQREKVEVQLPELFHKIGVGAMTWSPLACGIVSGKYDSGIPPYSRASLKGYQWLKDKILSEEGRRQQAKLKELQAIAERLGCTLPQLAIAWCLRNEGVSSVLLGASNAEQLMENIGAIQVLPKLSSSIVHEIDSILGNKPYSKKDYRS
TEST_DETAILS: enhancers of rat Kvbeta2 NADPH turnover – biochemical, NADPH fluorescence, primary screen (AID 623);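 further: fluorescence intensity change per second fitted from 20 to 320 s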
CONDITION_PARAMETERS: Recombinant KvBeta, NADPH fluorescence decrease slope, 10 min; at 10 µM; hits give low values
MEASUREMENT_TYPE: NADPH fluorescence slope

>>> recorded_result("CC12CN3CC(C)(CN(C1)C3c1ccc(Br)cc1)C2 (stereo not drawn)")
"-4.3e-05"
>>> recorded_result("O=c1/c(=C/c2ccco2)sc2nc(-c3ccccc3Br)nn12")
"-2.3e-05"
>>> recorded_result("COc1ccc(-n2nnc3c(=O)n(C/C=C/c4ccccc4)cnc32)cc1")
"-1.5e-05"
>>> recorded_result("Oc1ccccc1C1=Nc2nc3ccccc3n2C(c2ccccc2)C1 (stereo not drawn)")
"-7.3e-05"
>>> recorded_result("CCCCN(CC)S(=O)(=O)c1ccc2c(c1)CCCN2C(C)=O")
"-2.8e-05"
>>> recorded_result("Cc1ccc(C)c(-c2nc3ccc(N)cc3[nH]2)c1")
"-3.5e-05"
>>> recorded_result("Brc1ccc2ncnc(Nc3ccc(N4CCOCC4)cc3)c2c1")
"-5.5e-05"
>>> recorded_result("CCOC(=O)C1CCCN(S(=O)(=O)c2cccs2)C1 (stereo not drawn)")
"1.6e-05"
>>> recorded_result("CCOCCn1c(CN2CCC(Cc3ccccc3)CC2)nc2c1c(=O)n(C)c(=O)n2C")
"-2.3e-05"
>>> recorded_result("CN(C)c1ccc(/C=C/C(O)=C2/C(=O)N(C)C3(C)CC2c2ccccc2O3)cc1 (stereo not drawn)")
"-2e-07"
>>> recorded_result("CCOP(=O)(c1ccc(N(C)C)cc1)C(O)c1c(Cl)cccc1Cl (stereo not drawn)")
"-3.5e-05"
>>> recorded_result("O=C(NCc1cccs1)C(Cc1ccccc1)NS(=O)(=O)c1cccs1 (stereo not drawn)")
-0.000238
>>> recorded_result("COCC(=O)N(Cc1ccccc1)c1ccccn1")
"-4.6e-05"
>>> recorded_result("CS(=O)(=O)NCc1ccc(C(=O)NCc2ccccc2)cc1")
"-3.9e-05"
>>> recorded_result("CCOC(=O)N1CCN(Cc2nc3c(c(=O)n(C)c(=O)n3C)n2Cc2ccc(F)cc2)CC1")
"-3.3e-05"
>>> recorded_result("COC(=O)Nc1ccc(S(=O)(=O)N2CCCCCC2)cc1")
"1.2e-05"
>>> recorded_result("CCOC(=O)N1CCC(NC(=O)c2ccc3c(c2)N(C)CCS3)CC1")
"1.7e-06"
>>> recorded_result("Cc1cccc(NC(=O)c2cnc3sccn3c2=O)n1")
"5e-07"
>>> recorded_result("CCOCCCNC(=O)c1cc2sc(Cl)cc2n1CC")
"-9.5e-05"
>>> recorded_result("Cc1c(C(=O)O)sc2ncn(C)c(=O)c12")
"-2.2e-05"
>>> recorded_result("CCC(=O)Nc1cc(C)c(NC(=O)C23CC4CC(CC(C4)C2)C3)cn1")
"-3.3e-05"
>>> recorded_result("COCc1cc(C)nc(SCC(=O)Nc2cccc(C)c2C)c1C#N")
"2.4e-05"
>>> recorded_result("O=C(Cn1cnc2ccccc2c1=O)NCCC(=O)N1CCN(Cc2ccccc2)CC1")
"-9.6e-05"

Sourced from PubChem BioAssay
